System: MDA-MB-231 cells
Test: CD44+/CD24- expression analysis, MDA-MB-231
Format: cell-based, human
Details: 24 h; concentrations as E32
MEASURED_ENDPOINT: CD44-/CD24+ subpopulation, MDA-MB-231 (mean ± SEM) (%)
Numbers only here, please. The scale is %.

Inquiry: MDA-MB-231 cells / CD44-/CD24+ subpopulation, MDA-MB-231 (mean ± SEM) / CC1(C)CC(=O)C2=C(C1)NC(=S)NC2c1cccc(O)c1 (stereo not shown) [Compound 4bt, Dimethylenastron] : value?
Reply text: 0.0

Inquiry: And for CCOC(=O)C1=C(C)NC(=S)NC1c1cccc(O)c1 (stereo not shown) [Monastrol, reference compound] ?
Reply text: 0.007

Inquiry: Try this compound next: CC(=O)C1=C(C)NC(=O)NC1c1ccccc1[N+](=O)[O-] (stereo not shown) [Compound 4x]
Reply text: 0.020

Inquiry: Next compound: CCOC(=O)C1=C(C)NC(=S)NC1c1ccccc1O (stereo not shown) [Compound 4p]
Reply text: 0.003

###

Test system: MDA-MB-231 cells
Assay: MTT cell viability assay, MDA-MB-231
Format: cell-based, human
Conditions: 72 h treatment, MTT; read-out: IC50 MDA-MB-231
MEASURED_ENDPOINT: pIC50
# reply with the number alone; pIC50 is -log10 of concentration in mol/L

Inquiry: pIC50 lookup needed for CC(=O)C1=C(C)NC(=O)NC1c1ccccc1[N+](=O)[O-] (centres unmarked) [Compound 4x] , thanks.
Reply text: 3.62

# ---- query compound ----
Inquiry: What does the data say about its pIC50? Entry: CCOC(=O)C1=C(C)NC(=S)NC1c1ccccc1O (centres unmarked) [Compound 4p]
Reply text: 4.17

###

Tested on: MCF-7 cells
Test: MTT cell viability assay, MCF-7
Assay type: cell-based, human
Conditions: Homo sapiens, MCF7; 72 h treatment, MTT; read-out: IC50 MCF-7
MEASURED_ENDPOINT: IC50

Inquiry: Sample CCOC(=O)C1=C(C)NC(=S)NC1c1cccc(O)c1 (stereo not shown) [Monastrol, reference compound] — what was its IC50?
Reply text: 110 µM
